system: Tyrosine-protein kinase ABL1 (Homo sapiens), P00519 [E255K]; settings: at 0.1 µM
Sequence (P00519 whole entry E255K): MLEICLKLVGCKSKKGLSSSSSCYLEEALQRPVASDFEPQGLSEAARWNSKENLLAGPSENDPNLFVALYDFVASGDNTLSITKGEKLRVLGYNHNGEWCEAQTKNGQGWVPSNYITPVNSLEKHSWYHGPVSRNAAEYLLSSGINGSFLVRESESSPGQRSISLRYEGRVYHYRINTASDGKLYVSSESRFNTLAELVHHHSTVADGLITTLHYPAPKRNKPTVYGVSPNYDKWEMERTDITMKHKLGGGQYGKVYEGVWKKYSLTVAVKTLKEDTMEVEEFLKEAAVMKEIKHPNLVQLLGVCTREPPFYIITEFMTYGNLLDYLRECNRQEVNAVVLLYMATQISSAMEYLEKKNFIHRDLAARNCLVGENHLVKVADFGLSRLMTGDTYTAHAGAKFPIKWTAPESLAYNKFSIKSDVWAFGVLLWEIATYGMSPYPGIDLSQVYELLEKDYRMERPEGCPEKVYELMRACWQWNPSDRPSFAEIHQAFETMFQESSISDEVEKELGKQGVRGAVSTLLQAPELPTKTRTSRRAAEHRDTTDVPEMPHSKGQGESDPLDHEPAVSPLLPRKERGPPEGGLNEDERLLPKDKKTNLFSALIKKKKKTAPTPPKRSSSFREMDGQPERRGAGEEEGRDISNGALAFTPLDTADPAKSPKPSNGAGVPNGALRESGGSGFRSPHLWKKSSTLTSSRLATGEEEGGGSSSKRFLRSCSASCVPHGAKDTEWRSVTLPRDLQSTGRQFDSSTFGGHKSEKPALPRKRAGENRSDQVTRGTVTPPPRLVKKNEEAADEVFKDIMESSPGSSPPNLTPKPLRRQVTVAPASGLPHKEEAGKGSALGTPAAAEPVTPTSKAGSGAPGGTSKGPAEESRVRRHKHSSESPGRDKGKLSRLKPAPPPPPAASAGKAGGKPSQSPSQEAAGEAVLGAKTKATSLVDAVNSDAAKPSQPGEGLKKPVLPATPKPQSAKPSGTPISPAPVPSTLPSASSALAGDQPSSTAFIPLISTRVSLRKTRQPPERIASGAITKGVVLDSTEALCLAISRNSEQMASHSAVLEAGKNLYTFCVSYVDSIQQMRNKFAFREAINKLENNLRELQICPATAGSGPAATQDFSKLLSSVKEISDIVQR
EXPERIMENTAL ENDPOINT: inhibition (%)
Please state the figure in %; there is no need to write the unit.

query: Request the reported inhibition associated with Clc1ccc(-c2nn3ncccc3c2-c2ccnc(Nc3ccccc3)n2)cc1
result: 2.58

query: Quick check: inhibition of c1ccc(COc2ccc(Nc3ncnc4ccc(-c5ccco5)cc34)cc2)cc1 ?
result: -0.69

query: For the compound CNC(=O)c1cccc(C#Cc2cncnc2Nc2ccc(OCc3cccc(F)c3)c(Cl)c2)c1 , what inhibition is on record?
result: 0.14

query: Given the compound CC(=O)Nc1cccc(C#Cc2cncnc2Nc2ccc(OCc3cccc(F)c3)c(Cl)c2)c1 , what is its reported inhibition?
result: -0.36

* * *

target: Interleukin-1 receptor-associated kinase 4 (Homo sapiens) (UniProt Q9NWZ3); conditions: at 1 µM;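 further: mean inhibition values, from the GSK PKIS dataset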
Sequence (Q9NWZ3 whole entry): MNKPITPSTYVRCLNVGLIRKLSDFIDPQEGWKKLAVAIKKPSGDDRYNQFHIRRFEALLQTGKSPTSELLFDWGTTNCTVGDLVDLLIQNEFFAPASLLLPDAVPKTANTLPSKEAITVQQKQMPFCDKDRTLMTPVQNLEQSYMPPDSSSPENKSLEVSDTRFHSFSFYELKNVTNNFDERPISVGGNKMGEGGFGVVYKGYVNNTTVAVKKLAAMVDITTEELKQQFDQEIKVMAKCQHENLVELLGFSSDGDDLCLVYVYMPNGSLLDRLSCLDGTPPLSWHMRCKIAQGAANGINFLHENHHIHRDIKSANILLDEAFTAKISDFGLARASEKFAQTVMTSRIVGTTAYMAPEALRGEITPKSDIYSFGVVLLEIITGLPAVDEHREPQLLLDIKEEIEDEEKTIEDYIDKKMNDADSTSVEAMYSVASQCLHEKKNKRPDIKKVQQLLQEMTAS
Exercise: state measured inhibition for each of the compounds provided.
Express your answer in %, writing the number without its unit.

query: # lookup: inhibition of CCn1c(-c2nonc2N)nc2c(C#CC(C)(C)O)nc(OC[C@H](N)c3ccccc3)cc21
result: 1.37

query: Which inhibition is listed for c1ccc(-c2nc3n(c2-c2ccc4c(c2)OCO4)CCC3)nc1 ?
result: 0.56

query: What does the record list as inhibition for COc1ccc(-c2nn3ncccc3c2-c2ccnc(Nc3ccc4c(c3)OCCO4)n2)cc1 ?
result: -0.94

query: What value of measured inhibition is listed for N#Cc1c(NC(=O)c2ccc(F)cc2)sc2c1CCCC2 ?
result: 0.51

query: Record request: inhibition value, item COc1ccc(-c2oc3ncnc(N)c3c2-c2ccc(NC(=O)Nc3cc(C(F)(F)F)ccc3F)cc2)cc1
result: 2.91

query: What measured inhibition goes with c1ccc(COc2ccc(Nc3ncnc4ccc(-c5ccco5)cc34)cc2)cc1 ?
result: 1.06

query: Please report the recorded inhibition for COc1ccc2[nH]c3c4[nH]c5ccc(OC)cc5c4c4c(c3c2c1)C(=O)NC4=O .
result: 4.52

query: Looking for the measured inhibition of COc1ccc(CNC(=O)c2ccc(-c3cc(-c4nnc(C)o4)ccc3C)cc2)cc1 , can you help?
result: 1.98

query: I have this compound here, NC(=O)c1sc(-n2cnc3ccc(C(F)(F)F)cc32)cc1OCc1ccccc1Br , and I need its recorded inhibition.
result: 1.61

query: Which value of inhibition has been reported for CC(C)COC(=O)c1ccc2c(c1)/C(=C/Nc1ccc(S(N)(=O)=O)cc1)C(=O)N2 in the records?
result: 0.81

query: Fill in the blank: the reported inhibition of Fc1ccc(-c2nn3ncccc3c2-c2ccnc(Nc3ccc4c(c3)OCCO4)n2)cc1 is ____.
result: 2.18

query: Given the compound CCn1c(-c2nonc2N)nc2ccccc21 , what is its reported inhibition?
result: 1.55

query: What measured inhibition goes with Fc1ccc(-c2nn3ccccc3c2-c2ccncc2)cc1 ?
result: 0.14

query: Query: inhibition; subject: CS(=O)(=O)CCNCc1ccc(-c2ccc3ncnc(Nc4ccc(OCc5ccccc5)c(C(F)(F)F)c4)c3c2)o1
result: 1.09

query: Looking for the measured inhibition of Nc1ncc(-c2cccc(S(N)(=O)=O)c2)c2scc(-c3ccc(F)c(Cl)c3)c12 , can you help?
result: 2.08

query: What does the record list as inhibition for CCn1c(-c2nonc2N)nc2c(C#CC(C)(C)O)ncc(OC3CCNCC3)c21 ?
result: 1.93

query: Could you share which inhibition value was measured for CN1CCC(n2cnc(-c3ccc(F)cc3)c2-c2ccnc(Nc3ccccc3)n2)CC1 ?
result: 1.28

query: Can you share its inhibition? I mean this compound: CNC(=O)c1cc(-c2ccc(F)cc2)cc(-c2ccc(S(=O)(=O)N3CCCC3)cc2)c1N
result: 1.45

query: Quick one: inhibition of CCn1c(-c2nonc2N)nc2cnc(Oc3cccc(NC(=O)c4ccc(N(C)C)cc4)c3)cc21 ?
result: 0.95

query: Recorded inhibition for COc1ccc(-c2cc(-c3c[nH]nc3-c3ccccn3)ccn2)cc1 , please?
result: 2.03

* * *

biological target: MAP kinase-activated protein kinase 3 (Homo sapiens) (UniProt Q16644); settings: at 0.1 µM
Sequence (Q16644 whole entry, looked up): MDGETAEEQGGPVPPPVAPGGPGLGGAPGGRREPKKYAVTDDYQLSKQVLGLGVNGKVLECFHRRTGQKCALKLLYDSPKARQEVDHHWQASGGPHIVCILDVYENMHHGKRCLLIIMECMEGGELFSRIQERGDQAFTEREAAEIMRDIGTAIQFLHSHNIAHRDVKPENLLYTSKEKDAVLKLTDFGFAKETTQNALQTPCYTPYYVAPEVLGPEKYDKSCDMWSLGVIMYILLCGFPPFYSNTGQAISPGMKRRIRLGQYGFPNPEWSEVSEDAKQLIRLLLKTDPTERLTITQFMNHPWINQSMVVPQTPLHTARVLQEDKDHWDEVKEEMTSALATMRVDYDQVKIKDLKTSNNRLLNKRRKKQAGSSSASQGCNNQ
Description: GSK_PKIS: MAPKAPK3 mean inhibition at 0.1 uM [Nanosyn]
EXPERIMENTAL ENDPOINT: inhibition (%)
Just the number please, in %, no unit attached.

query: Which inhibition reading was recorded for the molecule Fc1ccc(-c2cc(-c3c[nH]nc3-c3ccccn3)ccn2)cc1 ?
result: 7.67

query: Query (molecule): O=C(O[C@H]1CN[C@H](C#Cc2cc3ncnc(Nc4ccc(Cc5ccccc5)cc4)c3s2)C1)N1CCOCC1 ; field requested: inhibition
result: 3.66

query: I am curious: what inhibition value has been reported for NS(=O)(=O)c1ccc(Nc2ncc(-c3ccccc3)o2)cc1 ?
result: 2.89

query: // returns reported inhibition for input CCOc1ccc2c(-c3ccnc(Nc4cccc(C(F)(F)F)c4)n3)cnn2n1
result: 2.73

query: Looking for the measured inhibition of CC1=C(C(=O)Nc2cc(Cl)c3[nH]ncc3c2)C(c2ccc(C(F)(F)F)cc2)CC(=O)N1 (stereo not given) , can you help?
result: 9.27

query: Any idea what its inhibition is? The molecule is Nc1ncc(-c2cccc(S(N)(=O)=O)c2)c2scc(-c3ccc(F)c(Cl)c3)c12
result: 6

query: Reported inhibition for Nc1nc(-c2cccc(Cl)c2)c(-c2ccc3ncccc3n2)s1 : what is it?
result: 13.6

query: inhibition for CCCN(CCS(C)(=O)=O)Cc1ccc(-c2ccc3ncnc(Nc4ccc(OCc5cccc(F)c5)c(Cl)c4)c3c2)o1 ?
result: 7.91

query: Can you look up the measured inhibition of CCn1c(-c2nonc2N)nc2cnc(Oc3cccc(NC(=O)c4ccc(N(C)C)cc4)c3)cc21 for me?
result: 2.53

query: Fill blank: measured inhibition of the molecule COc1cc2ncn(-c3cc(OCc4ccccc4C(F)(F)F)c(C(=O)N(C)C)s3)c2cc1OC is ____.
result: -1.65

query: Using the record for COC(=O)Nc1nc2ccc(Oc3ccc(NC(=O)Nc4cccc(Cl)c4)cc3)cc2[nH]1 , report its inhibition.
result: 3.71

query: Query (molecule): c1cc(-c2cnn3nc(N4CCOCC4)ccc23)nc(NC2CC2)n1 ; field requested: inhibition
result: 5.27

query: // query inhibition value for entry CN(C)CCOc1ccc(-c2nc(-c3ccncc3)c(-c3ccc4c(c3)CC/C4=N\O)[nH]2)cc1
result: 2.57

query: Entry CCn1cc(-c2ccnc3[nH]ccc23)c(-c2cccc(NC(=O)Nc3ccc(OCc4ccccc4)cc3)c2)n1 has what inhibition?
result: 0.57

query: Look up inhibition: COc1cc(/C=N/Nc2ncnc3[nH]ncc23)ccc1O
result: 2.87

query: Give the measured inhibition of CCc1nn2ncccc2c1-c1ccnc(NC2CC2)n1 .
result: 1.73

query: Quick one: inhibition for CN1CCC(n2cnc(-c3ccc(F)cc3)c2-c2ccnc(N)n2)CC1 ?
result: 17.1

query: Look up inhibition: CN1CCC(n2cnc(-c3ccc(F)cc3)c2-c2ccnc(Nc3ccccc3)n2)CC1
result: 34.8

query: What measured inhibition goes with Fc1ccc(-c2nn3ncccc3c2-c2ccnc(Nc3ccc4c(c3)OCCO4)n2)cc1 ?
result: 34.4

query: What does the record list as inhibition for CCNC(=O)O[C@H]1CN[C@H](C#Cc2cc3ncnc(Nc4ccc(OCc5cccc(F)c5)c(Cl)c4)c3s2)C1 ?
result: 2.87

* * *

Record form. Attribute: inhibition. Fill in for each entry.
Target: Inhibitor of nuclear factor kappa-B kinase subunit epsilon (Homo sapiens);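 further: reported values are averaged percent inhibition figures against human IKKε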
Sequence (whole entry): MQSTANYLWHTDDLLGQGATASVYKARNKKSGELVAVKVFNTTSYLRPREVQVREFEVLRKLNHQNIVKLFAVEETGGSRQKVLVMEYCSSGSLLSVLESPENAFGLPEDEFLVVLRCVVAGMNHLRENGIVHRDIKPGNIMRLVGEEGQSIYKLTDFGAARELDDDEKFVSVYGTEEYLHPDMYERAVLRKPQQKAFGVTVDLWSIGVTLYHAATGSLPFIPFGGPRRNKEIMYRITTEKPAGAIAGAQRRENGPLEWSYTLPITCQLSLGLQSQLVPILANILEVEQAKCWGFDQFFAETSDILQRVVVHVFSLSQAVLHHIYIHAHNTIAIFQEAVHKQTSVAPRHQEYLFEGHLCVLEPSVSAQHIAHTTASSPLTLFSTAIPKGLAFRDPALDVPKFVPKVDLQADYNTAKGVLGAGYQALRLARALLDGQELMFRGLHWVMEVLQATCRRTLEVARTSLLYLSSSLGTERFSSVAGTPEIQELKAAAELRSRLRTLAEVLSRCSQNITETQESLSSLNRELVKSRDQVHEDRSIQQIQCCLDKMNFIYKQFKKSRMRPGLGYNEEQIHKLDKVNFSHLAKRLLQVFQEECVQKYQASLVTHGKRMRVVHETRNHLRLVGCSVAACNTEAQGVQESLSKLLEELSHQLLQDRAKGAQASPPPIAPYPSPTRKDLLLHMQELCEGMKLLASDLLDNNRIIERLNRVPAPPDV
Settings: at 1 µM
Value and unit, in that order.

query: Quick one: inhibition for Cc1cccc(Nc2ncc(-c3ccccc3)o2)c1 ?
result: 6.48%

query: What value of measured inhibition is listed for COc1cc2c(cc1Nc1nc(Nc3ccsc3C(N)=O)c3cc[nH]c3n1)N(C(=O)CN(C)C)CCC2(C)C ?
result: 35.2%

query: Reported inhibition for COc1cccc(-n2ncc3c(N/N=C/c4ccc(F)cc4)ncnc32)c1 : what is it?
result: 8.08%

query: Quick one: inhibition of CNC(=O)c1cc(-c2ccc(F)cc2)cc(-c2ccc(S(=O)(=O)N3CCCC3)cc2)c1N ?
result: 3.73%
